Source: ChEMBL document CHEMBL1129884

- test target: UniProtKB P21728
- Sequence (P21728 whole entry): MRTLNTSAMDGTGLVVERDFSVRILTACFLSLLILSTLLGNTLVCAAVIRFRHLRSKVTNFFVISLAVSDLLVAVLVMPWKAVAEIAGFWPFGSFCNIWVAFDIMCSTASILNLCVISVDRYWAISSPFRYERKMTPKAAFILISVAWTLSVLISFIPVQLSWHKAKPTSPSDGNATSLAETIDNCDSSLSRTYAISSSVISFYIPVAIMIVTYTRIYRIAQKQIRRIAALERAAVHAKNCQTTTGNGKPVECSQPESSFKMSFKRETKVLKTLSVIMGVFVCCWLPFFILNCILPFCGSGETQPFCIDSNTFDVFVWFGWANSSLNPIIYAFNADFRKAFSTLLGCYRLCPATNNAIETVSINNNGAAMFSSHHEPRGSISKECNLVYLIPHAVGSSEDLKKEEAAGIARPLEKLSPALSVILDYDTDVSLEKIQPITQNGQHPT
- assay info: Compound was measured for its binding affinity at Dopamine receptor D1 at a concentration of 10 uM using [3H]SCH-23390 as radioligand
observable: inhibition (%)
Please reply with the bare figure in % and do not write the unit itself.

Some solved cases for reference:
| molecule | observable | obs value |
| --- | --- | --- |
| O=C(c1cccc(CN2CCN3c4ccccc4OCC3C2)c1)N1CCCCC1 (centres undefined) | inhibition | 14.7 |
| O=C(c1cccc(CN2CCc3c([nH]c4ccccc34)C2)c1)N1CCCCC1 | inhibition | 23.7 |
| O=C(c1cccc(CN2CCc3c([nH]c4ccccc34)C2)c1)N1CCc2ccccc21 | inhibition | 40.8 |

Now look at this entry.
Tested on UniProtKB P21728, the item O=C(c1cccc(CN2CCN3c4ccccc4OCC3C2)c1)N1CCc2ccccc21 (centres undefined) showed inhibition equal to 42.4

====

- test target: D(3) dopamine receptor (Homo sapiens, UniProt P35462)
- Sequence (P35462 whole entry): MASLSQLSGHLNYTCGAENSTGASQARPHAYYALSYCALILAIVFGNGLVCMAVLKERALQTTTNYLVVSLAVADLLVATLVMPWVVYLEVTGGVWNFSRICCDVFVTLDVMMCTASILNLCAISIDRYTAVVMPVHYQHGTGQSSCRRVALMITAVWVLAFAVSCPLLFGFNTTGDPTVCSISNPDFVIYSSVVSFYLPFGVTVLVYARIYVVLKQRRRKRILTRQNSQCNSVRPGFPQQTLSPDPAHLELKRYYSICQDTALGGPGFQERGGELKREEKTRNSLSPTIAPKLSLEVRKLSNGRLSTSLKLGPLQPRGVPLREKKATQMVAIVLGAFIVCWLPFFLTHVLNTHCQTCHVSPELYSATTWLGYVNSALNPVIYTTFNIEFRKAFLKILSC
observable: pKi
Reminder that pKi means the negative base-10 logarithm of the concentration expressed in mol/L.

Value (pKi, D(3) dopamine receptor (Homo sapiens, UniProt P35462)) for record CC(C)Oc1ccccc1N1CCN(Cc2cccc(C(=O)N3CCCCC3)c2)CC1 [MAZAPERTINE] = 8.74

====

- test target: Serotonin 2 (5-HT2) receptor (Homo sapiens) (UniProt P41595+P28223+P28335)
- Sequence (P28223 whole entry, looked up): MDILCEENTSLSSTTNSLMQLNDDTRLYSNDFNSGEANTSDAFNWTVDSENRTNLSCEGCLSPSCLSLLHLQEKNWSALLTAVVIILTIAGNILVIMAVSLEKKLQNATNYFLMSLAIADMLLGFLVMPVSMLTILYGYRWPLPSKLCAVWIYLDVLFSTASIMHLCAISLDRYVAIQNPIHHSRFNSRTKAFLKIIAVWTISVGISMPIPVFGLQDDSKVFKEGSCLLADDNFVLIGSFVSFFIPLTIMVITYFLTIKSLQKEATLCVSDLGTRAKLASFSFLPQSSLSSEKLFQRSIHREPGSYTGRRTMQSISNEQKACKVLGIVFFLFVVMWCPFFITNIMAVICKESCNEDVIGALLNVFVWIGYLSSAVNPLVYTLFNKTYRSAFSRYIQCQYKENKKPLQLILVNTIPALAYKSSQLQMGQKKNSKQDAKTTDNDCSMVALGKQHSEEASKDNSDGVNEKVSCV
- Sequence (P28335 whole entry, looked up): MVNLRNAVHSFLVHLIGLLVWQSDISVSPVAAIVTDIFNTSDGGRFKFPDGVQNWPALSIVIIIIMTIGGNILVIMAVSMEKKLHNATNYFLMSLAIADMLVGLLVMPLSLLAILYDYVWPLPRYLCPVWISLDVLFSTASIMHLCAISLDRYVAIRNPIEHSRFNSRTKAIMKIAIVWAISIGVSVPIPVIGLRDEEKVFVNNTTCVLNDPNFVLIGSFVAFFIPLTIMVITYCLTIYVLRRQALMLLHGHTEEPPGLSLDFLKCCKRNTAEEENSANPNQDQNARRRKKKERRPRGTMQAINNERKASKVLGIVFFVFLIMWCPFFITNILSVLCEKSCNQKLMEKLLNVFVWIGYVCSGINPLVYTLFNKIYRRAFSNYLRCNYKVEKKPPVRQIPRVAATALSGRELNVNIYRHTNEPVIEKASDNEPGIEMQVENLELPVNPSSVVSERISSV
- Sequence (P41595 whole entry, looked up): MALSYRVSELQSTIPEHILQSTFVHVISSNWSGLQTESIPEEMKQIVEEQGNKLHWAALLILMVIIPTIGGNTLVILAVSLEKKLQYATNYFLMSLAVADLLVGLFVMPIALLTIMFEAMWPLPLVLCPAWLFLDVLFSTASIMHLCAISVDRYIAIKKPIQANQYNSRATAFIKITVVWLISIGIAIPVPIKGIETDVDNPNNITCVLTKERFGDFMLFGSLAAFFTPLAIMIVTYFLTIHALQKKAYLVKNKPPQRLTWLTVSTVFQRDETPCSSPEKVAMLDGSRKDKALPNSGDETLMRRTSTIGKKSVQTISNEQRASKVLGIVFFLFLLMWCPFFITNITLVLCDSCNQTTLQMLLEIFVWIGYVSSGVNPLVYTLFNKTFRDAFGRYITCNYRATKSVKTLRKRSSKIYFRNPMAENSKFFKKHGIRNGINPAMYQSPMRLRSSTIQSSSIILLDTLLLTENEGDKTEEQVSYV
- assay info: Compound was measured for its binding affinity at 5-hydroxytryptamine 2 receptor at a concentration of 10 uM using [3H]ketanserin as radioligand
- Type: protein assay
Listed molecules paired with reported inhibition
Your answer is read as %, so omit the unit and give the number.

Record excerpt, results attached:
| molecule | test target | uom | inhibition |
| --- | --- | --- | --- |
| O=C(c1cccc(CN2CCc3c([nH]c4ccccc34)C2)c1)N1CCCCC1 | Serotonin 2 (5-HT2) receptor (Homo sapiens) (UniProt P41595+P28223+P28335) | % | 18 |
| O=C(c1cccc(CN2CCN3c4ccccc4OCC3C2)c1)N1CCc2ccccc21 (centres undefined) | Serotonin 2 (5-HT2) receptor (Homo sapiens) (UniProt P41595+P28223+P28335) | % | 7.5 |
| O=C(c1cccc(CN2CCc3c([nH]c4ccccc34)C2)c1)N1CCc2ccccc21 | Serotonin 2 (5-HT2) receptor (Homo sapiens) (UniProt P41595+P28223+P28335) | % | 29.9 |

Now examine the next entry.
What the record says about O=C(c1cccc(CN2CCN3c4ccccc4OCC3C2)c1)N1CCCCC1 (centres undefined) : inhibition is 7.5

====

- test target: Adrenergic receptor alpha-1 (Homo sapiens, UniProt P35348+P25100+P35368)
- Sequence (P35348 whole entry): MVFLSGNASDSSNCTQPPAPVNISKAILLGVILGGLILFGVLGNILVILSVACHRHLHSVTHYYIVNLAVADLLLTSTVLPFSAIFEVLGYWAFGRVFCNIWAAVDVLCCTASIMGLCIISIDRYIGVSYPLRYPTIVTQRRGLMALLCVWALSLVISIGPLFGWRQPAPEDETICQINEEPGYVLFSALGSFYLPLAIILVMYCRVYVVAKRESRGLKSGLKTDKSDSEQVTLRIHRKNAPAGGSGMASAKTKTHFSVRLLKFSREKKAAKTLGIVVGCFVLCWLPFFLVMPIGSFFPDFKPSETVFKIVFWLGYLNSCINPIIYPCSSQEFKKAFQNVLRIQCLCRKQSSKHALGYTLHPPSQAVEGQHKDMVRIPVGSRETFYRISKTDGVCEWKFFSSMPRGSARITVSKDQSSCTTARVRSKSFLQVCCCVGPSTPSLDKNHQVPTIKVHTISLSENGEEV
- Sequence (P25100 whole entry): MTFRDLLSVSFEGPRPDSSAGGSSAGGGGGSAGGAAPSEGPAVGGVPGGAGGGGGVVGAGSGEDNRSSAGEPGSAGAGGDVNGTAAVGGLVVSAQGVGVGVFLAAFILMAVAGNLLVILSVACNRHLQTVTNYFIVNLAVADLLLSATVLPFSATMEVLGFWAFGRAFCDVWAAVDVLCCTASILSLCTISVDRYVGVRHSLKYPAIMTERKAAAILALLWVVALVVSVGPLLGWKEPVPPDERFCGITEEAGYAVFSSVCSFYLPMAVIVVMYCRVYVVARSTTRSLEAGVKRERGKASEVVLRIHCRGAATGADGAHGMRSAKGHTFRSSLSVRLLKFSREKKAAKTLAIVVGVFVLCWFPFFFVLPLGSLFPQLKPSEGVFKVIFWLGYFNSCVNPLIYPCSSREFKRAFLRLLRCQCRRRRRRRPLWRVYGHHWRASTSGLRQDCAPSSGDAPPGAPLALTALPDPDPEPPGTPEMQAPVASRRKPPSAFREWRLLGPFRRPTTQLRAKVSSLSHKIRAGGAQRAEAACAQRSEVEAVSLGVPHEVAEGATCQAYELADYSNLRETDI
- Sequence (P35368 whole entry): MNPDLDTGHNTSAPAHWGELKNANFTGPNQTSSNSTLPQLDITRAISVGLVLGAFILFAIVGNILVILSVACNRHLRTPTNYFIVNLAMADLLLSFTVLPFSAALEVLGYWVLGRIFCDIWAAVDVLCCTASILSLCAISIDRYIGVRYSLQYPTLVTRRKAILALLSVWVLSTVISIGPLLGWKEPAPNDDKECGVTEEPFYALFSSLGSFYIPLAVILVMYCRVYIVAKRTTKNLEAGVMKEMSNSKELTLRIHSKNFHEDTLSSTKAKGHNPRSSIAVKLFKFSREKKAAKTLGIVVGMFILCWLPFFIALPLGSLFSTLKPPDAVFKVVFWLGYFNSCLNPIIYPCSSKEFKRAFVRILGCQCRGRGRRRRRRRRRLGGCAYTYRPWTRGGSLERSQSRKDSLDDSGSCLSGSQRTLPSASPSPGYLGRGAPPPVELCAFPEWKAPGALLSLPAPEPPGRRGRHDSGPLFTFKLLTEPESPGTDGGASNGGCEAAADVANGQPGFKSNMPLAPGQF
- assay info: Compound was measured […] for its binding affinity at Alpha-1 adrenergic receptor using [3H]prazosin as radioligand.
observable: Ki (nM)
Give just the number in nM; leave the unit off.

Please review the entries below; each comes with its answer.
| compound | uom | Ki |
| --- | --- | --- |
| O=C(c1cccc(CN2CCc3c([nH]c4ccccc34)C2)c1)N1CCCCC1 | nM | 36 |
| CC(C)Oc1ccccc1N1CCN(Cc2cccc(C(=O)N3CCc4ccccc43)c2)CC1 | nM | 1.7 |

Given item O=C(c1cccc(CN2CCc3c([nH]c4ccccc34)C2)c1)N1CCc2ccccc21 , the value recorded as its Ki is 2.9

Entry O=C(c1cccc(CN2CCN3c4ccccc4OCC3C2)c1)N1CCCCC1 (stereo not given) — recorded Ki = 200
